Property: CTG-3D luminescence at 96 h; scope: individual compounds
System: HCI-001 (organoid from a triple-negative breast cancer xenograft)
Assay: CTG-3D luminescence at 96 h relative to day-0 seeding control (ratio to day 0); higher = more growth / less cytotoxicity; PDxO 3D drug screen, 96 h, CTG-3D normalised to day-0 seeding control.
Details: 10 µM; days in culture: 269
Measured Quantity: CTG-3D luminescence at 96 h

CCN1CCN(Cc2ccc(Nc3ncc(F)c(-c4cc(F)c5nc(C)n(C(C)C)c5c4)n3)nc2)CC1 [abemaciclib] : 0.68
CN(Cc1cnc2nc(N)nc(N)c2n1)c1ccc(C(=O)N[C@@H](CCC(=O)O)C(=O)O)cc1 [methotrexate] : 2.16
CC1(C)CCC(c2ccc(Cl)cc2)=C(CN2CCN(c3ccc(C(=O)NS(=O)(=O)c4ccc(N[C@H](CCN5CCOCC5)CSc5ccccc5)c(S(=O)(=O)C(F)(F)F)c4)cc3)CC2)C1 [navitoclax] : 0.889
NC(=O)c1cccc2cn(-c3ccc([C@@H]4CCCNC4)cc3)nc12 [niraparib] : 1.23
NC(=O)Nc1cc(-c2cccc(F)c2)sc1C(=O)N[C@H]1CCCNC1 [AZD7762] : 0.388
CCc1c2c(nc3ccc(O)cc13)-c1cc3c(c(=O)n1C2)COC(=O)[C@]3(O)CC [SN-38] : 0.0511
CNC(=O)c1cccc(-c2ccc3c(N4CCOC[C@@H]4C)nc(N4CCOC[C@@H]4C)nc3n2)c1 [vistusertib] : 0.533
Cc1cc(Nc2ncnc3ccc(NC4=NC(C)(C)CO4)cc23)ccc1Oc1ccn2ncnc2c1 [tucatinib] : 1.67
COc1cc2c(Oc3ccc4[nH]c(C)cc4c3F)ncnc2cc1OCCCN1CCCC1 [cediranib] : 0.00899

====

Tested on: HCI-015 (organoid from a triple-negative breast cancer xenograft)
Experiment: CTG-3D luminescence at 96 h relative to day-0 seeding control (ratio to day 0); higher = more growth / less cytotoxicity; PDxO 3D drug screen, 96 h, CTG-3D normalised to day-0 seeding control.
Conditions: 100 µM; days in culture: 172
Please enter YES where CTG-3D luminescence at 96 h is greater than or equal to 0.03, and NO where it is lower.

Cc1cc(Nc2ncc(Cl)c(Nc3ccccc3S(=O)(=O)C(C)C)n2)c(OC(C)C)cc1C1CCNCC1 [ceritinib] : NO
COc1cc2c(Oc3ccc4[nH]c(C)cc4c3F)ncnc2cc1OCCCN1CCCC1 [cediranib] : NO
O=C(c1ccc(F)c(F)c1Nc1ccc(I)cc1F)N1CC(O)([C@@H]2CCCCN2)C1 [cobimetinib] : NO
C[C@H](NC(=O)CCC(F)(F)F)C(=O)N[C@@H]1C(=O)N(CCO)c2ncccc2-c2ccccc21 [crenigacestat] : YES
C[C@@H]1COCCN1c1cc(C2([S@](C)(=N)=O)CC2)nc(-c2cc[nH]c3nccc2-3)n1 [ceralasertib] : YES
CCc1c2c(nc3ccc(O)cc13)-c1cc3c(c(=O)n1C2)COC(=O)[C@]3(O)CC [SN-38] : YES
CC(C)n1nc(-c2ccc3oc(N)nc3c2)c2c(N)ncnc21 [sapanisertib] : YES
C[C@]12CC[C@@H]3c4ccc(O)cc4C[C@@H](CCCCCCCCC[S+]([O-])CCCC(F)(F)C(F)(F)F)[C@H]3[C@@H]1CC[C@@H]2O (stereo partly drawn) [fulvestrant] : YES

====

System: HCI-023 (organoid from a triple-negative breast cancer xenograft)
Assay: CTG-3D luminescence at 96 h relative to day-0 seeding control (ratio to day 0); higher = more growth / less cytotoxicity; PDxO 3D drug screen, 96 h, CTG-3D normalised to day-0 seeding control.
Details: 100 µM; days in culture: 111
Property: CTG-3D luminescence at 96 h; scope: individual compounds
Measured Quantity: CTG-3D luminescence at 96 h

NC(=O)Nc1cc(-c2cccc(F)c2)sc1C(=O)N[C@H]1CCCNC1 : -9.95e-05
CC(C)n1nc(-c2ccc3oc(N)nc3c2)c2c(N)ncnc21 : 0.0354
CC1(C)CCC(c2ccc(Cl)cc2)=C(CN2CCN(c3ccc(C(=O)NS(=O)(=O)c4ccc(N[C@H](CCN5CCOCC5)CSc5ccccc5)c(S(=O)(=O)C(F)(F)F)c4)cc3)CC2)C1 : 0.0151
NC(=O)c1cccc2cn(-c3ccc([C@@H]4CCCNC4)cc3)nc12 : -0.00664
O=C(O)C1(C(=O)O)CCC1.[NH2-].[NH2-].[Pt+2] : 0.106
CC(C)(C(=O)NCC(F)(F)C(F)(F)F)C(=O)N[C@@H]1C(=O)Nc2ccccc2-c2ccccc21 : 0.672
